- target-system: T1, Cynomolgus Monkey Siglec-15 full-length extracellular domain linked with His tag (Cynomolgus Monkey)
- T1 construct: Bought from ACROBiosystems; also called SG5-052H6
- T1 chain: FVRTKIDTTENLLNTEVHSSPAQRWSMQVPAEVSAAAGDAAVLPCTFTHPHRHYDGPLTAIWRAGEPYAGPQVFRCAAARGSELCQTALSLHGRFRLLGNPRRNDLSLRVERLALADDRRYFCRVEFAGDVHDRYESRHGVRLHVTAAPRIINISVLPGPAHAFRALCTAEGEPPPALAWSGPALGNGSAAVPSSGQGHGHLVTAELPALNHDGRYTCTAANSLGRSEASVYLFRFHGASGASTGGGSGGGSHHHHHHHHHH
- experiment-summary: ELISA, coated antigen
measurement-name: EC50 (ng/mL)
Express it in ng/mL; write the number only.

Sample answers from the record:
# binder, unit-info, EC50
records = [
    ("255C12B10 chimeric antibody (antibody, V domains shown, Mouse variable regions combined with human IgG1 (N297A) constant regions) VH: EVQLQQSGPELVKPGASVKMSCKASGYTFTGYNMNWVKQSHGKSLEWIGYINPNNGGTRYNQKFKGKATLTINKSSSTAYMELRSLTSEDSAVYYCARDYGIDYWGQGTTLTVSS VL: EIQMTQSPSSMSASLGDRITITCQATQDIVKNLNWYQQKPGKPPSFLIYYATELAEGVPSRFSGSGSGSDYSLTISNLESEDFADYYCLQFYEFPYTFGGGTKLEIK", "ng/mL", 5.46),
    ("21F6C6 chimeric antibody (antibody, human IgG1, V domains shown, also called 21F6C6-mHL) VH: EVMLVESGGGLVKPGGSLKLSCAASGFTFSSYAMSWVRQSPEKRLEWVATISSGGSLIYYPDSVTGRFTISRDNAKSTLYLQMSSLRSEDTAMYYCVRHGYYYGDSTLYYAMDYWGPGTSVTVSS VL: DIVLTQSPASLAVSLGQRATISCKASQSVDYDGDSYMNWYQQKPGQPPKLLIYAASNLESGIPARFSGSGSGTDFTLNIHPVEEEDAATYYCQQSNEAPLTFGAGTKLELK", "ng/mL", 6.61),
    ("75E1F2 chimeric antibody (antibody, V domains shown, Mouse variable regions combined with human IgG1 (N297A) constant regions) VH: EVQLVESGGGSVKPGGSLKLSCAASGFTFSDYGMHWVRQAPEKGLEWITYISSGSSIIDYSDTVKGRFTISRDNAKDTLFLQMTSLRSEDTAIYYCVRREDHYAMDYWGQGTSVTVSS VL: DIVMTQSHKFLSTSVGDRVSITCKASQDVYTAVAWFQQKPGQSPKLLFYSASYRFTGVPDRFNGSGSGTDFTLTITSMQAEDLAVYYCQQHYSTPWTFGGGTKLEIK", "ng/mL", 12.2),
]

Query: Assign EC50 to the following record: 174C11C9 chimeric antibody (antibody, human IgG1, V domains shown, also called 174C11C9-mHL) VH: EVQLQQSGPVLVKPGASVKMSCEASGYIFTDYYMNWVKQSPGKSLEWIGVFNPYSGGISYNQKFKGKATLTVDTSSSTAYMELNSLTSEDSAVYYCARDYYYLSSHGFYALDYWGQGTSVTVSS VL: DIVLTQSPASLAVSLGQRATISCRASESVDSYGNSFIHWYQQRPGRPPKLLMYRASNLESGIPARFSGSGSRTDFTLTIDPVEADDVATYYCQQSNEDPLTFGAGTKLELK
Reply: 7.48
